Could you please report measured kon for the items listed next?
- STUDY TARGET: T1, His-tagged ECD of cynomolgus monkey 4-1BB (cynomolgus monkey, UniProt Q07011 24-186 (human entry))
- T1 construct: also called cynomolgus 4-1BB; cyno 4-1BB; not shown: His tag
- T1 chain: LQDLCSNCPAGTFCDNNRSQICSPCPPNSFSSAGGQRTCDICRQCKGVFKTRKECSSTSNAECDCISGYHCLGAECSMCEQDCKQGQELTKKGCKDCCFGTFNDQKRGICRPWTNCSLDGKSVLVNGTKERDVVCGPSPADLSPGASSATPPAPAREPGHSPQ
- PROTOCOL NOTES: SPR (Biacore), captured antibody, His-tagged ECD analyte
Report the value in M⁻¹ s⁻¹ with no unit label.

IN: Entry hu106-1-hIgG1 (antibody, V domains shown, 310 is written here; Human IgG1 constant region bearing L234A and L235A; also called hu106.1x.1x) VH: EVQLVQSGAEVKKPGSSVKVSCKASGYTFTSYYIYWVRQAPGQGLEWIGNIWPGNGGTFYGEKFMGRATFTADTSTSTAYMELSSLRSEDTAVYYCARRPDYSGDDYFDYWGQGTLVTVSS VL: NVMLTQPHSVSESPGKTVTISCKLNSGNIGSYYVHWYQQRPGSSPTTMIYRDDKRPDGVPDRFSGSIDSSSNSASLTISGLKTEDEADYYCHSYDSTITPVFGGGTKLTVLG : reported kon = ?
OUT: 620000

IN: Entry hu106-4-hIgG4 (antibody, V domains shown, Human IgG4 constant region with the S228P mutation; also called hu106.1x.3x) VH: EVQLVQSGAEVKKPGSSVKVSCKASGYTFTSYYIYWVRQAPGQGLEWIGNIWPGNGGTFYGEKFMGRATFTADTSTSTAYMELSSLRSEDTAVYYCARRPDYSGDDYFDYWGQGTLVTVSS VL: SVELTQPPSVSVSPGQTARITCKLNSGNIGSYYVHWYQQKPGQAPVTMIYRDDKRPDGIPERFSGSSDSSSNSAFLTISGVQAEDEADYYCHSYDSTITPVFGGGTKLTVL : reported kon = ?
OUT: 280000

IN: Entry hu107-3-hIgG4 (antibody, V domains shown, Human IgG4 constant region with the S228P mutation; also called hu107.1x.1y) VH: EVQLVQSGAEVKKPGSSVKVSCKASDYTFNDYWVSWVRQAPGQGLEWIGEIYPNSGATNFNGKFRGRATLTVDNSASTAYMELSSLRSEDTAVYYCTREYTRDWFAYWGQGTLVTVSS VL: DVQLTQSPSSLSASVGDRVTITCRSSQSLLDSDGNTYLYWFQQKPGKAPKRLIYLVSNLGSGVPSRFSGSGSGTDFTLTISSLQPEDFATYYCMQPTHAPYTFGQGTKVEIK : reported kon = ?
OUT: 240000

IN: Entry hu107-1-hIgG1 (antibody, V domains shown, 312 is written here; Human IgG1 constant region bearing L234A and L235A; also called hu107.1x.1x) VH: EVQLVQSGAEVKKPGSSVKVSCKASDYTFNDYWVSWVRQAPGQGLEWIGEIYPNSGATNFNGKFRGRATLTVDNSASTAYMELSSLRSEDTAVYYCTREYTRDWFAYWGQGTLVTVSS VL: DVVLTQSPLSLPVTLGQPASISCRSSQSLLDSDGNTYLYWFQQRPGQSPRRLIYLVSNLGSGVPDRFSGSGSGTDFTLKISRVEAEDVGVYYCMQPTHAPYTFGQGTKLEIKR : reported kon = ?
OUT: 310000
